All values here come from patent US20240182536A1.

Task for the reader: assign each of the following binders its reported HEK-Blue activity, +100 nM BP, DF-1,000,000.
Target: T1, interleukin 18 binding protein (IL-18BP) (UniProt O95998 31-194); also: unit not given here
T1 sequence (looked up): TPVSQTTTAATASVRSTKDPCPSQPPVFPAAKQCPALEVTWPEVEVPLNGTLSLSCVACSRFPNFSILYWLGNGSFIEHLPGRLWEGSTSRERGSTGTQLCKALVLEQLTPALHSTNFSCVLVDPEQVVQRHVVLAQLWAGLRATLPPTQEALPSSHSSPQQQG
Experiment: cell-based or functional assay
Numbers only.

- BINDER: "IL-18 variant T34E, S36P, D40A, N41G, K53T, S55R (ligand) YFGKLESKLSVIRNLNDQVLFIDQGNRPLFEDMEDPDMRAGAPRTIFIISMYTDRQPRGMAVTISVKSEKISTLSSENKIISFKEMNPPDNIKDTKSDIIFFQRSVPGHDNKMQFESSSYEGYFLASEKERDLFKLILKKEDELGDRSIMFTVQNED"
  ENDPOINT_VALUE: 0.09

Let us examine a further case.
Request: # get_value(readout='HEK-Blue activity, +100 nM BP, DF-1,000,000', item= IL-18 variant K53N, S55A, R104N, P107A, H109Y (ligand) YFGKLESKLSVIRNLNDQVLFIDQGNRPLFEDMTDSDMRDNAPRTIFIISMYNDAQPRGMAVTISVKSEKISTLSSENKIISFKEMNPPDNIKDTKSDIIFFQNSVAGYDNKMQFESSSYEGYFLASEKERDLFKLILKKEDELGDRSIMFTVQNED )
Result: 0.14
